Kd data for Dual specificity mitogen-activated protein kinase kinase 5 (Homo sapiens, UniProt Q13163) follow.
The source made the active and inactive calls.

Consider the following illustrative entries.
NC(=O)c1ccc(N(C(N)=O)c2c(F)cccc2F)nc1-c1ccc(F)cc1F; > 30 µM (inactive)
COc1cccc(Nc2ncnn3ccc(CN4CC[C@@H](N)[C@H](O)C4)c23)c1; 0.972 µM (active)
COc1ccc(-c2ccc3ncc4c(c3c2)n(-c2ccc(N3CCNCC3)c(C(F)(F)F)c2)c(=O)n4C)cn1 [BGT-226 FREE BASE]; > 30 µM (inactive)
C=CCN(/C=C1/C(=O)O[C@H](COC)[C@@]2(C)C1=C(O)C(=O)C1=C2[C@H](OC(C)=O)C[C@]2(C)C(=O)CC[C@@H]12)CC=C; > 30 µM (inactive)
O=c1[nH]c([C@@H]2CCCN2)nc2c1oc1ccc(Cl)cc12; > 30 µM (inactive)

query: // map `COc1cc(F)c(F)c(Nc2ccc(I)cc2F)c1NS(=O)(=O)C1(C[C@H](O)CO)CC1` to recorded Kd (system: Dual specificity mitogen-activated protein kinase kinase 5 (Homo sapiens, UniProt Q13163)); further: in the data inactive means no Kd found up to 30 µM
Sequence (Q13163 whole entry): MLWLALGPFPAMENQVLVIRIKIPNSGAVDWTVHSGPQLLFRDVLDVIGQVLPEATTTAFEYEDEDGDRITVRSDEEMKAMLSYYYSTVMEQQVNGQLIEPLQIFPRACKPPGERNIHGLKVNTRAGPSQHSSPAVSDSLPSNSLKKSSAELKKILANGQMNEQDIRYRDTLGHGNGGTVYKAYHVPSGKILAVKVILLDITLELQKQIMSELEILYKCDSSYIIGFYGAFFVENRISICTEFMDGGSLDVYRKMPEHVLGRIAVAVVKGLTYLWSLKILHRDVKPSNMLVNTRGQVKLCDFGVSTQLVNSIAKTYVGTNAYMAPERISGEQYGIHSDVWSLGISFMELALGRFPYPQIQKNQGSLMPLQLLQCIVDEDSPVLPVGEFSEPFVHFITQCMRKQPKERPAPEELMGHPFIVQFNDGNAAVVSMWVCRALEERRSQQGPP
result: > 30 µM (inactive)

query: Give Dual specificity mitogen-activated protein kinase kinase 5 (Homo sapiens, UniProt Q13163) Kd for `CCN(CCCOc1ccc2c(Nc3cc(CC(=O)Nc4cccc(F)c4)n[nH]3)ncnc2c1)CCOP(=O)(O)O`
result: 0.082 µM (active)

query: # returns recorded Kd (system: Dual specificity mitogen-activated protein kinase kinase 5 (Homo sapiens, UniProt Q13163)) for `CNC(=O)c1cc(COc2nnc(Nc3ccc(Cl)cc3)c3ccoc23)ccn1`; further: in the data inactive means no Kd found up to 30 µM
result: > 30 µM (inactive)

query: Please tell me: Kd of COc1cc2ncnc(Nc3ccc(F)c(Cl)c3)c2cc1NC(=O)/C=C/CN1CCCCC1 [DACOMITINIB ANHYDROUS] , system Dual specificity mitogen-activated protein kinase kinase 5 (Homo sapiens, UniProt Q13163)?; further: in the data inactive means no Kd found up to 30 µM
result: > 30 µM (inactive)

query: Missing value: Kd, Dual specificity mitogen-activated protein kinase kinase 5 (Homo sapiens, UniProt Q13163), entry `C=CCn1c(=O)c2cnc(Nc3ccc(N4CCN(C)CC4)cc3)nc2n1-c1cccc(C(C)(C)O)n1` . Fill in?
result: > 30 µM (inactive)

query: Kindly state the measured Kd obtained for `Cc1cc(-c2cc(OC(=O)c3ccccc3)ccc2Cl)cc2nnc(Nc3ccc(OCCN4CCCC4)cc3)nc12` with Dual specificity mitogen-activated protein kinase kinase 5 (Homo sapiens, UniProt Q13163).
result: > 30 µM (inactive)

query: API: value(readout=Kd, system=Dual specificity mitogen-activated protein kinase kinase 5 (Homo sapiens, UniProt Q13163)) for record `O=C(O)c1ccc2c(c1)nc(Nc1cccc(Cl)c1)c1ccncc12`; further: in the data inactive means no Kd found up to 30 µM
result: > 30 µM (inactive)

query: Under Dual specificity mitogen-activated protein kinase kinase 5 (Homo sapiens, UniProt Q13163): Kd value of `S=C(NCc1ccc2c(c1)OCO2)N1CCN(c2ncnc3c2oc2ccccc23)CC1` ?
result: > 30 µM (inactive)

query: Item: `c1cc(OCCN2CCCCC2)cc(-c2n[nH]c3ccc(-c4nc[nH]n4)cc23)c1` Test system: Dual specificity mitogen-activated protein kinase kinase 5 (Homo sapiens, UniProt Q13163) Read-out: Kd Value: ?; further: in the data inactive means no Kd found up to 30 µM
result: > 30 µM (inactive)

query: Query for Dual specificity mitogen-activated protein kinase kinase 5 (Homo sapiens, UniProt Q13163): what Kd does the record show for `CCOc1ccn(-c2ccc(F)cc2)c(=O)c1C(=O)Nc1ccc(Oc2ccnc(N)c2Cl)c(F)c1` ?
result: 2.08 µM (active)

query: Identify the measured Kd of `COc1cc2ncnc3c2cc1OCCCCCN(C)Cc1ccc(Br)cc1N3` for Dual specificity mitogen-activated protein kinase kinase 5 (Homo sapiens, UniProt Q13163).
result: > 30 µM (inactive)

query: Notebook: pull reported Kd for Dual specificity mitogen-activated protein kinase kinase 5 (Homo sapiens, UniProt Q13163), entry `C[C@@H]1COC(Nc2ccc3ncnc(Nc4ccc(OCc5nccs5)c(Cl)c4)c3c2)=N1`
result: > 30 µM (inactive)

query: What reported Kd corresponds to `COc1cccc2cc(-c3nc([C@H]4CC[C@H](C(=O)O)CC4)n4ncnc(N)c34)[nH]c12` on Dual specificity mitogen-activated protein kinase kinase 5 (Homo sapiens, UniProt Q13163)?
result: 4.91 µM (active)

query: # returns recorded Kd (system: Dual specificity mitogen-activated protein kinase kinase 5 (Homo sapiens, UniProt Q13163)) for `O=C(Nc1ccc(OC(F)(F)F)cc1)c1sccc1NCc1ccnc2ccccc12`; further: in the data inactive means no Kd found up to 30 µM
result: > 30 µM (inactive)

Just for reference, ChEMBL document CHEMBL3991601 is where these values come from.
